- SYSTEM_UNDER_TEST: RlmJ (Escherichia coli, UniProt P37634)
- Sequence (P37634 whole entry): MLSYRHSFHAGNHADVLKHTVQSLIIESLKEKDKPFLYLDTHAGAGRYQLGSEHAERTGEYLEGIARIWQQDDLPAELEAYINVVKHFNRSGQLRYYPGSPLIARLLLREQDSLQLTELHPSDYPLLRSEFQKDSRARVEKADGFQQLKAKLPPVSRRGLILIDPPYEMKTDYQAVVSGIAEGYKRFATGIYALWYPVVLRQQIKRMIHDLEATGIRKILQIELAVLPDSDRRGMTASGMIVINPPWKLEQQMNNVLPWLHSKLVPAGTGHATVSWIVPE
MEASURED_PARAMETER: Kd

[[record]]
line_notation = "Nc1ncnc2c1ncn2[C@@H]1O[C@H](C[C@@H](N)CC[C@H](N)C(=O)O)[C@@H](O)[C@H]1O"
system_under_test = "RlmJ (Escherichia coli, UniProt P37634)"
measured_parameter = "Kd"
result = "1700 nM"

